# Subject Of Test: human NNMT (Homo sapiens, UniProt P40261)
# Sequence (P40261 1-264): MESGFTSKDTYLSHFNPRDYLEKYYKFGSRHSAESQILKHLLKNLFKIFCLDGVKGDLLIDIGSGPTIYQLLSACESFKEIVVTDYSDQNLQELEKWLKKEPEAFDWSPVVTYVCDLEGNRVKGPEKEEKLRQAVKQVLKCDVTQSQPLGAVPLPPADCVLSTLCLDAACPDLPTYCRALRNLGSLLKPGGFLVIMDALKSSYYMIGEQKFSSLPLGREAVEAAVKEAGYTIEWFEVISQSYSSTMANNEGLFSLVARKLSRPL
# Test Protocol: Fluorescence-based NNMT enzymatic assay (human enzyme)
# Format: biochemical
# Assay Context: Table 3; read-out: hNNMT IC50
pIC50: −log10 of the molar value.
Readout Type: pIC50

Consider the following illustrative entries.
{"Compound": "Cc1nn(CC(C)(O)C(=O)N2CCCN(c3cccc4[nH]c(=O)ccc34)CC2)cc1-c1cccc(F)c1 (centres unmarked) [Compound 28]", "pIC50": "< 5.52"}
{"Compound": "Cc1nn(CC(C)(O)C(=O)N2CCC(O)(c3cccc4[nH]c(=O)ccc34)CC2)cc1-c1cccc(F)c1 (centres unmarked) [Compound 30]", "pIC50": "< 5.00"}

Lookup: Missing value: pIC50, human NNMT (Homo sapiens, UniProt P40261), entry Cc1nn(CC(C)(O)C(=O)N2CC(c3cccc4[nH]c(=O)ccc34)C2)cc1-c1cccc(F)c1 (centres unmarked) [Compound 27] . Fill in?
Found: < 4.52

Lookup: Missing value: pIC50, human NNMT (Homo sapiens, UniProt P40261), entry Cc1nn(CC(C)(O)C(=O)N2CCC(c3cccc4[nH]c(=O)ccc34)CC2)cc1-c1cccc(F)c1 (centres unmarked) [Compound 25] . Fill in?
Found: 6.12

Lookup: Missing value: pIC50, human NNMT (Homo sapiens, UniProt P40261), entry Cc1nn(CC(C)(O)C(=O)N2CCC(O)(c3cccc4c[n+]([O-])ccc34)CC2)cc1-c1cccc(F)c1 (centres unmarked) [Compound 32] . Fill in?
Found: < 4.52

Lookup: Missing value: pIC50, human NNMT (Homo sapiens, UniProt P40261), entry Cc1nn(CC(C)(O)C(=O)N2CC(c3cccc4cnccc34)C2)cc1-c1cccc(F)c1 (centres unmarked) [Compound 29] . Fill in?
Found: < 4.52

Lookup: Missing value: pIC50, human NNMT (Homo sapiens, UniProt P40261), entry Cc1nn(CC(C)(O)C(=O)N2CCC(O)(c3cccc4cnccc34)CC2)cc1-c1cccc(F)c1 (centres unmarked) [Compound 31] . Fill in?
Found: 6.96

Lookup: Missing value: pIC50, human NNMT (Homo sapiens, UniProt P40261), entry Cc1nn(CC(C)(O)C(=O)N2CCC(C3=CC=CC4NC(=O)C=CC34)C2)cc1-c1cccc(F)c1 (centres unmarked) [Compound 26] . Fill in?
Found: < 5.00

====

# Subject Of Test: human NNMT (Homo sapiens, UniProt P40261)
# Test Protocol: Fluorescence-based NNMT enzymatic assay (human enzyme)
# Format: biochemical
# Assay Context: read-out: hNNMT IC50
Readout Type: IC50

{"Compound": "Cc1nn(CC(C)(O)C(=O)N2CCN(c3ccc4c(cnn4Cc4ccccc4)c3)CC2)cc1-c1cccc(F)c1 (stereo not shown)", "Subject Of Test": "human NNMT (Homo sapiens, UniProt P40261)", "IC50": "> 30 µM"}
{"Compound": "Cc1nn(CC(C)(O)C(=O)N2CCN(c3ccc4cnccc4c3)CC2)cc1-c1cccc(F)c1 (stereo not shown)", "Subject Of Test": "human NNMT (Homo sapiens, UniProt P40261)", "IC50": "> 10 µM"}

Lookup: Which IC50 reading was recorded for the compound Cc1nn(CC(C)(O)C(=O)N2CCN(c3cccc4[nH]ncc34)CC2)cc1-c1cccc(F)c1 (stereo not shown) ?
Found: > 3 µM

Lookup: Which IC50 reading was recorded for the compound Cc1nn(CC(C)(O)C(=O)N2CCN(c3ccc4[nH]ncc4c3)CC2)cc1-c1cccc(F)c1 (stereo not shown) ?
Found: > 10 µM

====

# Subject Of Test: human NNMT (Homo sapiens)
# Test Protocol: Fluorescence-based NNMT enzymatic assay (human enzyme)
# Assay type: biochemical
# Assay Context: read-out: hNNMT IC50
pIC50: −log10 of the molar value.
# pIC50 annotations

Consider the following illustrative entries.
{"Compound": "Cc1nn(CC(C)(O)C(=O)N2CCN(c3cccc4c3OCC(=O)N4)CC2)cc1-c1cccc(F)c1 (stereo not shown) [Compound 24]", "pIC50": "< 5.00"}
{"Compound": "CCn1c(=N)n2c3c(cccc31)CCC2 [Compound 3]", "pIC50": 6.70}

Lookup: Which pIC50 reading was recorded for the compound Cc1nn(CC(C)(O)C(=O)N2CCN(c3cccc4c(=O)[nH]ccc34)CC2)cc1-c1cccc(F)c1 (stereo not shown) [Compound 22] ?
Found: < 4.52

Lookup: Which pIC50 reading was recorded for the compound Cc1nn(CC(C)(O)C(=O)N2CCN(c3cnc4cnccn34)CC2)cc1-c1cccc(F)c1 (stereo not shown) [Compound 17] ?
Found: < 5.52

====

# Subject Of Test: mouse NNMT (Mus musculus, UniProt O55239)
# Sequence (O55239 whole entry): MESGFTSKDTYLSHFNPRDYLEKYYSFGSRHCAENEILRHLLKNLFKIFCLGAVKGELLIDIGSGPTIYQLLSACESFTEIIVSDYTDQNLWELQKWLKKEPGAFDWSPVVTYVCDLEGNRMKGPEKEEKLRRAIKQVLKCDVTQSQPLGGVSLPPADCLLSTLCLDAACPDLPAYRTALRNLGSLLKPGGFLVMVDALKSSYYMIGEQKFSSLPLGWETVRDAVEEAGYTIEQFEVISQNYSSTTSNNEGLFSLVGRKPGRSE
# Test Protocol: Fluorescence-based NNMT enzymatic assay (mouse enzyme)
# Type: biochemical
# Assay Context: read-out: mNNMT IC50
Readout Type: IC50 (µM)
Field: numeric (µM). Do not append units.

Consider the following illustrative entries.
{"Compound": "Cc1nn(CC(C)(O)C(=O)N2CCN(c3cccc4cnncc34)CC2)cc1-c1cccc(F)c1 (stereo not shown)", "Readout Type": "IC50", "Measured Number": 5.1}
{"Compound": "Cc1nn(CCC(=O)N2CCN(c3cccc4cnccc34)CC2)cc1-c1ccccc1", "Readout Type": "IC50", "Measured Number": 2.2}
{"Compound": "COc1ccc(-c2cn(C[C@](C)(O)C(=O)N3CCN(c4cccc5cnccc45)CC3)nc2C)cc1 (stereo in doubt)", "Readout Type": "IC50", "Measured Number": 0.0008}
{"Compound": "CC(O)(C/N=c1/sc2cccc3c2n1CCC3)C(=O)N1CCN(c2cccc3cnccc23)CC1 (stereo not shown)", "Readout Type": "IC50", "Measured Number": 3}
{"Compound": "Cc1nn(CC(O)C(=O)N2CCN(c3cccc4cnccc34)CC2)cc1-c1cccc(F)c1.O=C(O)C(F)(F)F (stereo not shown)", "Readout Type": "IC50", "Measured Number": 2.43}

Turning now to a further compound:
Lookup: Missing value: IC50, mouse NNMT (Mus musculus, UniProt O55239), entry CN1Cc2cccc3c2N(CCC3)C1=N . Fill in?
Found: 0.1
